% Inhibition of hair follicle arginase by entry:
System: hair follicle arginase
Assay info: In vitro assay for inhibitors of hair follicle arginase
Assay type: biochemical
Condition info: compound 10 μM, hamster flank organ hair follicle extract, 5 minutes at 37° C., ornithine formation by HPLC
Attribute measured: % Inhibition of hair follicle arginase

INSERT INTO measurements (compound, attribute_measured, assay_result) VALUES
  ('CCN=C=NCCCN(C)C', '% Inhibition of hair follicle arginase', '64%'),
  ('Cc1ccc(S(=O)(=O)N[C@@H](CCCNC(=N)N)C(=O)O)cc1 [N-Tosyl-L-arginine]', '% Inhibition of hair follicle arginase', '64%'),
  ('CC(NC(CCCNC(=N)N)C(=O)O)C(=O)O (centres unmarked) [Octopine]', '% Inhibition of hair follicle arginase', '50%'),
  ('CC(C)(N)C(=O)O [α-Aminoisobutyric acid]', '% Inhibition of hair follicle arginase', '27%'),
  ('N=C(NO)NCCC[C@H](N)C(=O)O [N^-G -Hydroxy-L-arginine]', '% Inhibition of hair follicle arginase', '98%');
